# protocol.description: Cassette pharmacokinetics studies in mice
# Assay type: in vivo
# settings: male, Balb/c, plasma; Mouse, PO, 5 mg/kg
# Description: Pharmacokinetics studies were conducted using cassette dosing protocols, with test compounds administered per mouse. Treatment groups were 3 mice (˜6-8 weeks old, ˜20-30 g Balb/c male mice) per route of administration. Compounds were formulated in 5% DMSO and 95% PEG400 with final concentrations of 0.5 mg/mL for IV and PO dosing. […] The supernatant was diluted with water, and compound concentration was determined by HPLC/MS/MS compared to calibration standards of 0.5-1,000 ng/mL. […]
quantity.name: AUC(0-inf) (ng·h/mL)

INSERT INTO measurements (mol_smiles, quantitative_result) VALUES
  ('CNS(=O)(=O)Nc1ccc(Oc2c(C(=O)NC3CC3)c(Nc3ccc(I)cc3F)n(C)c(=O)c2C)cc1', 505),
  ('COCCNS(=O)(=O)Nc1cccc(Oc2c(C(=O)NC3CC3)c(Nc3ccc(I)cc3F)n(C)c(=O)c2C)c1Cl', 1090),
  ('CNS(=O)(=O)Nc1cccc(Oc2c(C(=O)NC3CC3)c(Nc3ccc(I)cc3F)n(C)c(=O)c2C)c1OC', 635),
  ('CNS(=O)(=O)Nc1cccc(Oc2c(C(=O)NC3CC3)c(Nc3ccc(I)cc3F)n(C)c(=O)c2C)c1C(F)(F)F', 12900);

* * *

# assay.system: MEK1-CRAF complex (Homo sapiens (Human), UniProt Q02750)
# Sequence (Q02750 whole entry, looked up): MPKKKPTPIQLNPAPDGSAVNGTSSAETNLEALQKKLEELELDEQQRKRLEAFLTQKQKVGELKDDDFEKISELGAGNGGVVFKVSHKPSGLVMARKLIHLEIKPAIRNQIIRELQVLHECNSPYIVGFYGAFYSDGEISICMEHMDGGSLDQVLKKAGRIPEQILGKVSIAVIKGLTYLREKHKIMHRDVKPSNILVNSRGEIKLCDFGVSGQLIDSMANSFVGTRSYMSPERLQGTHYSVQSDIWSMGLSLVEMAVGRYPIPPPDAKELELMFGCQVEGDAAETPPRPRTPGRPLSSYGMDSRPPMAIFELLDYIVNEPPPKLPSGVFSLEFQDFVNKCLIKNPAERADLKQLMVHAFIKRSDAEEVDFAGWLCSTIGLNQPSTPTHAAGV
# Sequence (P04049 whole entry partner, looked up): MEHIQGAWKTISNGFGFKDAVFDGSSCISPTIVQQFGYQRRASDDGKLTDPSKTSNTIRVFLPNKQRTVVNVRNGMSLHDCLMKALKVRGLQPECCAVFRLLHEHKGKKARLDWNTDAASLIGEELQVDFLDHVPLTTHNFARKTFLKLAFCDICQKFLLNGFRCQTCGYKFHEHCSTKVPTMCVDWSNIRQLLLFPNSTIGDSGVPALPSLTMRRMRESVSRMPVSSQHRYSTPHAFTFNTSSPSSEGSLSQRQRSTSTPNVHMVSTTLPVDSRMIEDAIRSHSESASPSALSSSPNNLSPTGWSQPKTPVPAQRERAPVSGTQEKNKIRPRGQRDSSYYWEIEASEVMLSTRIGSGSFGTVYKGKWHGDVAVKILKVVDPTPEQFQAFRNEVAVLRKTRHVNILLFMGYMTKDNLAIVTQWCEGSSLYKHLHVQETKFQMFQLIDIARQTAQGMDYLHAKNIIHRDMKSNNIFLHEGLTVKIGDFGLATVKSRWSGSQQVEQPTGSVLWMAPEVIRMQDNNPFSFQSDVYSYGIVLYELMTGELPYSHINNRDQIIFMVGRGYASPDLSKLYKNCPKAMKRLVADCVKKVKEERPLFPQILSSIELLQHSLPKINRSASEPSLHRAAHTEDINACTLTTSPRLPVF
# protocol.description: Stabilization of MEK1-CRAF complex assay (AlphaLISA)
# Format: binding
# settings: compound 0.1 μM
quantity.name: KD Ratio (mean), compound to DMSO

INSERT INTO assay_data (compound, assay_system, quantitative_result) VALUES
  ('CNS(=O)(=O)Nc1cccc(Oc2c(C(=O)NC3CC3)c(Nc3ccc(I)cc3F)n(C)c(=O)c2C)c1OC(F)(F)F [Compound I-40]', 'MEK1-CRAF complex (Homo sapiens (Human), UniProt Q02750)', 0.62),
  ('CNS(=O)(=O)Nc1cccc(Oc2c(C(=O)NC3CC3)c(Nc3ccc(I)cc3F)n(C)c(=O)c2C)c1OC [Compound I-1]', 'MEK1-CRAF complex (Homo sapiens (Human), UniProt Q02750)', 0.55),
  ('CNS(=O)(=O)Nc1cccc(Oc2c(C(=O)NCC(F)(F)F)c(Nc3ccc(I)cc3F)n(C)c(=O)c2C)c1Cl [Compound I-45]', 'MEK1-CRAF complex (Homo sapiens (Human), UniProt Q02750)', 0.42),
  ('CCNC(=O)c1c(Oc2cccc(NS(=O)(=O)NC)c2Cl)c(C)c(=O)n(C)c1Nc1ccc(I)cc1F [Compound I-54]', 'MEK1-CRAF complex (Homo sapiens (Human), UniProt Q02750)', 0.36),
  ('COCCNS(=O)(=O)Nc1cccc(Oc2c(C(=O)NC3CC3)c(Nc3ccc(I)cc3F)n(C)c(=O)c2C)c1Cl [Compound I-55]', 'MEK1-CRAF complex (Homo sapiens (Human), UniProt Q02750)', 0.58),
  ('CNS(=O)(=O)Nc1cccc(Oc2c(C(=O)NC(C)C)c(Nc3ccc(I)cc3F)n(C)c(=O)c2C)c1Cl [Compound I-41]', 'MEK1-CRAF complex (Homo sapiens (Human), UniProt Q02750)', 0.57),
  ('Cc1c(Oc2cccc(NS(=O)(=O)NC3CC3)c2Cl)c(C(=O)NC2CC2)c(Nc2ccc(I)cc2F)n(C)c1=O [Compound I-42]', 'MEK1-CRAF complex (Homo sapiens (Human), UniProt Q02750)', 0.57),
  ('CCNS(=O)(=O)Nc1cccc(Oc2c(C(=O)NC3CC3)c(Nc3ccc(I)cc3F)n(C)c(=O)c2C)c1Cl [Compound I-43]', 'MEK1-CRAF complex (Homo sapiens (Human), UniProt Q02750)', 0.52);

* * *

# protocol.description: Cassette pharmacokinetics studies in mice
# Assay type: in vivo
# settings: male, Balb/c, plasma; Mouse, PO, 5 mg/kg
quantity.name: Tmax (min)

INSERT INTO measurements (mol_smiles, quantity_name, quantitative_result) VALUES
  ('CNS(=O)(=O)Nc1cccc(Oc2c(C(=O)NC3CC3)c(Nc3ccc(I)cc3F)n(C)c(=O)c2C)c1OC(F)(F)F', 'Tmax', 48),
  ('Cc1c(Oc2cccc(NS(=O)(=O)NCC(F)(F)F)c2Cl)c(C(=O)NC2CC2)c(Nc2ccc(I)cc2F)n(C)c1=O', 'Tmax', 36),
  ('CNS(=O)(=O)Nc1ccc(Oc2c(C(=O)NC3CC3)c(Nc3ccc(I)cc3F)n(C)c(=O)c2C)cc1', 'Tmax', 48),
  ('CNS(=O)(=O)Nc1cccc(Oc2c(C(=O)N(C)C3CCC3)c(Nc3ccc(I)cc3F)n(C)c(=O)c2C)c1', 'Tmax', 12),
  ('CNS(=O)(=O)Nc1cccc(Oc2c(C(=O)NC(C)C)c(Nc3ccc(I)cc3F)n(C)c(=O)c2C)c1Cl', 'Tmax', 30),
  ('CNS(=O)(=O)Nc1cccc(Oc2c(C(=O)NC3CC3)c(Nc3ccc(I)cc3F)n(C)c(=O)c2C)c1Cl', 'Tmax', 30);

Entry source: patent US20230382863A1
